# System: CP262
# Experiment Notes: qHTS profiling for inhibitors of Plasmodium falciparum proliferation (AID 504749);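 note: 0% = DMSO vehicle and full inhibition = artemisinin control; nearly all actives have a fitted effect of over 60% in size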
# Run Parameters: P. falciparum in erythrocytes, SYBR Green DNA, 72 h; series mostly up to 28.7 µM
Results filed as inconclusive are left out. The source made the active and inactive calls. Calls come from the whole dose curve; as a rule, active = well fitted inhibition curve with a large enough effect; inconclusive = small, poorly fitted or top-dose-only effect; inactive = flat fitted curve, though single readings scatter. Peptide text beside a SMILES is read from it.

[
  {
    "Compound": "COC(=O)CCC(=O)CN",
    "outcome": "inactive"
  },
  {
    "Compound": "Oc1cc(O)c2c(c1)OC(c1ccc(O)c(O)c1)C(O)C2 (stereo unspecified)",
    "outcome": "inactive"
  },
  {
    "Compound": "CCOc1ccc(N=Nc2ccc(N)cc2N)cc1",
    "outcome": "inactive"
  },
  {
    "Compound": "O=C(O)CCC(=O)C(=O)O",
    "outcome": "inactive"
  },
  {
    "Compound": "COc1cc(-c2ccc(-[n+]3nc(-c4ccccc4)nn3-c3ccc([N+](=O)[O-])cc3)c(OC)c2)ccc1-[n+]1nc(-c2ccccc2)nn1-c1ccc([N+](=O)[O-])cc1",
    "outcome": "inactive"
  },
  {
    "Compound": "CC(=O)N[C@@H](CC(=O)O)C(=O)N[C@@H](CCC(=O)O)C(=O)O (Ac-Asp-Glu-OH)",
    "outcome": "inactive"
  }
]

====

# Experiment Notes: qHTS assay for small molecule antagonists of retinoid X receptor alpha signaling (AID 588546);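 note: cells stimulated with 9-cis-retinoic acid as agonist; % is set by controls: 0 for no effect and ±100 for the full control effect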
# Run Parameters: HEK293T RXRa-UAS-bla, beta-lactamase ratio, antagonist mode; measured here: W530 green channel, cytotoxicity proxy
Inconclusive results are not listed.
Overview of recorded max response for various compounds

[
  {
    "Compound": "O=C(O)CCC(=O)C(=O)O",
    "max response": "-14.3%"
  },
  {
    "Compound": "CC1=C2[C@@H]([C@H](C)CC[C@H]2/C=C(\\C)C(=O)O)[C@H](O)C1",
    "max response": "6.79%"
  },
  {
    "Compound": "CC1=CCC(C(C)(C)O)CC1 (configuration not stated)",
    "max response": "1.88%"
  },
  {
    "Compound": "CC(C)(C)NC(=O)[C@@H]1C[C@@H]2CCCC[C@@H]2CN1C[C@@H](O)[C@H](Cc1ccccc1)NC(=O)[C@H](CC(N)=O)NC(=O)c1ccc2ccccc2n1",
    "max response": "9.91%"
  },
  {
    "Compound": "O=CCCCC=O",
    "max response": "-9.66%"
  },
  {
    "Compound": "CCCCC/C=C\\C/C=C\\CCCCCCCC(=O)O",
    "max response": "2.1%"
  },
  {
    "Compound": "C[C@H]1C[C@H]2[C@@H]3CCC4=CC(=O)C=C[C@]4(C)[C@@]3(F)[C@@H](O)C[C@]2(C)[C@@]1(O)C(=O)CO",
    "max response": "8.66%"
  }
]

====

# Test system: KB-3-1
# Experiment Notes: Cytotoxic Profiling of Annotated Libraries Using Quantitative High-Throughput Screening (AID 1296008); note: nearly all actives have a fitted effect of over 60% in size
# Run Parameters: Five cell lines viability, CellTiter-Glo ATP luminescence, 48-72 h
Inconclusive results are not listed. Calls of active or inactive are those of the source. The call rests on the fitted dose curve; in most records, active means well fitted inhibition curve with a large enough effect; inconclusive means small, poorly fitted or top-dose-only effect; inactive means flat fitted curve, though single readings scatter.
Classes used: active, inactive

[
  {
    "Compound": "CC(=O)OC(CSC1CCC(=O)OC(C)CCC(=O)C1)C(=O)O (centres undefined)",
    "Group": "inactive"
  },
  {
    "Compound": "CC(C)=CCCC1(C)Oc2cc3c(c4c2C2C(O4)C(C)(O)CCC21)CN(C(CCC(=O)O)C(=O)O)C3=O (centres undefined)",
    "Group": "inactive"
  },
  {
    "Compound": "CC12CCC3C(C)(C)C(O)CCC3(C)C1Cc1c(oc(C(=O)O)cc1=O)O2 (centres undefined)",
    "Group": "inactive"
  },
  {
    "Compound": "CC(=O)C1CCC2(C)C3=C(CCC12C)C1(C)CCC(=O)C(C)(C)C1CC3 (centres undefined)",
    "Group": "inactive"
  },
  {
    "Compound": "CC1CCC2(O1)C(C)(C)CC(O[C@@H]1O[C@H](CO[C@@H]3OC[C@](O)(CO)[C@H]3O)[C@@H](O)[C@H](O)[C@H]1O)CC2(C)O (some centres undefined)",
    "Group": "inactive"
  },
  {
    "Compound": "O=C(O)c1ccc(CCCc2ccc(OCCc3ccc(F)cc3)cc2)o1",
    "Group": "inactive"
  },
  {
    "Compound": "CC1=C2C3OC(=O)C(C)C3(O)CCC2(C)CCC1=O (centres undefined)",
    "Group": "inactive"
  },
  {
    "Compound": "COc1cc2c(Nc3ccc(Cl)c(Cl)c3F)ncnc2cc1OCC1C[C@@H]2CN(C)C[C@@H]2C1 (some centres undefined)",
    "Group": "active"
  },
  {
    "Compound": "COc1c2c(c(C)c3c1C(=O)OC3)O[C@@]1(C)C[C@@H](O)[C@]34O[C@](OC)(CC[C@]3(C)[C@H]1C2)OC4(C)C",
    "Group": "inactive"
  }
]

====

# Target Of Assay: Cytochrome P450 2C19 (Homo sapiens) (UniProt P33261)
# Sequence (P33261 whole entry, looked up): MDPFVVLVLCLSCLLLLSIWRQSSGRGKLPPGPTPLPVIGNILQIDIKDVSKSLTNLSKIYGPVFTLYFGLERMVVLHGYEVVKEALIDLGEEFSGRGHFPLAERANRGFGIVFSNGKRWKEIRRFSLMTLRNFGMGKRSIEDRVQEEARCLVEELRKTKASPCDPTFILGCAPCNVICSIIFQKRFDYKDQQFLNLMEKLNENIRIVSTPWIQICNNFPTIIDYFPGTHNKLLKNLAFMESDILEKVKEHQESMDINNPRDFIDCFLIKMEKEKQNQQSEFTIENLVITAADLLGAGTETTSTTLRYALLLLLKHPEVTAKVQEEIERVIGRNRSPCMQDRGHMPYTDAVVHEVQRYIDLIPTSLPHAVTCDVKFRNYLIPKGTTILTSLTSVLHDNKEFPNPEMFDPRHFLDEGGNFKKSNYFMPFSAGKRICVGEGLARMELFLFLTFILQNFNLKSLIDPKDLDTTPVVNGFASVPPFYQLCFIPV
# Experiment Notes: qHTS for inhibitors of CYP2C19 against the NCATS DSHEA and TCM libraries (AID 1919974);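 note: luminescence from luciferin released by CYP2C19 oxidation of a pro-luciferin substrate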
# Run Parameters: CYP2C19 enzyme inhibition, luminescence qHTS; series mostly up to 34.1 µM
Records with an inconclusive call do not appear. Calls of active or inactive are those of the source. The call rests on the fitted dose curve; in most records, active means well fitted inhibition curve with a large enough effect; inconclusive means small, poorly fitted or top-dose-only effect; inactive means no such curve, though single readings can be large or run the other way.
Classes used: active, inactive

[
  {
    "Compound": "Oc1cc(O)c2c(c1)OC(c1ccc(O)c(O)c1)C(O)C2 (stereo not given)",
    "Group": "inactive"
  },
  {
    "Compound": "CC1=CCC(C(C)(C)O)CC1 (stereo not given)",
    "Group": "active"
  },
  {
    "Compound": "Cc1c(C)c2c(c(C)c1O)CC[C@@](C)(CCC[C@H](C)CCC[C@H](C)CCCC(C)C)O2",
    "Group": "inactive"
  },
  {
    "Compound": "CCCCCCCC(=O)O",
    "Group": "inactive"
  },
  {
    "Compound": "C[C@H]1[C@H](C)CC[C@]2(C(=O)O)CC[C@]3(C)C(=CC[C@@H]4[C@@]5(C)C[C@@H](O)[C@H](O)[C@@](C)(CO)[C@@H]5CC[C@]43C)[C@H]12",
    "Group": "inactive"
  }
]

====

# Test system: HEK293T
# Experiment Notes: qHTS assay to identify novel small-molecules to repurpose for Merkel cell carcinoma treatment (AID 1296009); note: nearly all actives have a fitted effect of over 60% in size
# Run Parameters: MCC and control cell lines, CellTiter-Glo viability, 72 h; series mostly up to 44.8 µM
# Text: MCC is a rare and aggressive neuroendocrine skin cancer with limited treatment options. Approximately 80% of MCCs have the Merkel cell polyomavirus (MCPyV) DNA integrated into the host genome (virus-positive: VP-MCC) and viral oncogenes drive oncogenesis. The remaining MCCs are virus-negative (VN-MCC) and are caused by UV mutagenesis. […] Using cell viability as a readout (CellTiter-Glo assay) we found both overlapping and distinct drugs that can be repurposed for the treatment of VP-MCC and VN-MCC. […]
Results filed as inconclusive are left out. The source made the active and inactive calls. Calls come from the whole dose curve; as a rule, active = well fitted inhibition curve with a large enough effect; inconclusive = small, poorly fitted or top-dose-only effect; inactive = flat fitted curve, though single readings scatter.
Readout Kind: outcome

[
  {
    "Molecule": "CCC1CC2C(C)=CC3CCCCC3C2(C)C2(OC(=O)C(C)(O)OC2=O)O1 (stereo unspecified)",
    "Target Of Assay": "HEK293T",
    "Result": "inactive"
  },
  {
    "Molecule": "CC1(O)CCC2C(C(=O)O)=COC(OC3OC(CO)C(O)C(O)C3OC(=O)/C=C/c3ccc(O)cc3)C21 (stereo unspecified)",
    "Target Of Assay": "HEK293T",
    "Result": "inactive"
  },
  {
    "Molecule": "CO[C@@H]1CC[C@H](OC[C@]2(COC(=O)c3ccc(C)[nH]3)[C@H](OC(C)=O)CC[C@@]3(C)[C@@H]4CC=C(C)[C@@H](C5=C(O)C(=O)OC5O)[C@]4(C)CC[C@@H]32)O[C@H]1C (stereo partly specified)",
    "Target Of Assay": "HEK293T",
    "Result": "inactive"
  },
  {
    "Molecule": "CC(C)C(C#N)O[C@@H]1O[C@H](CO[C@@H]2OC[C@](O)(CO)[C@H]2O)[C@@H](O)[C@H](O)[C@H]1O (stereo partly specified)",
    "Target Of Assay": "HEK293T",
    "Result": "inactive"
  },
  {
    "Molecule": "O=c1ccn([C@@H]2O[C@H](CO)[C@@H](O)[C@H]2O)c(=O)[nH]1",
    "Target Of Assay": "HEK293T",
    "Result": "inactive"
  },
  {
    "Molecule": "C[C@@H](Nc1cc(NS(=O)(=O)N2CCC2)nc(SCc2cccc(F)c2F)n1)[C@@H](O)CO",
    "Target Of Assay": "HEK293T",
    "Result": "inactive"
  },
  {
    "Molecule": "CC(C)(OC1OC(CO)C(O)C(O)C1O)C1CCC(O)(CO)C2CC(O)C(C)(O)C2C1 (stereo unspecified)",
    "Target Of Assay": "HEK293T",
    "Result": "inactive"
  },
  {
    "Molecule": "Cc1[nH]cnc1C1CCN(c2nc3cccc4c3n2CCC4=O)CC1",
    "Target Of Assay": "HEK293T",
    "Result": "inactive"
  },
  {
    "Molecule": "CC(C)c1cc2c(c(O)c1O[C@@H]1O[C@H](CO)[C@@H](O)[C@H](O)[C@H]1O)CC1(O)CCC(O)C(C)(C)C1CC2 (stereo partly specified)",
    "Target Of Assay": "HEK293T",
    "Result": "inactive"
  },
  {
    "Molecule": "CC1(C)CCC[C@@]2(C)[C@H]1[C@H](O)C=C1COC(=O)[C@@]12O",
    "Target Of Assay": "HEK293T",
    "Result": "inactive"
  },
  {
    "Molecule": "C=C1CC2[C@]3(C)C(=C(O)C(=O)[C@@]2(C)[C@]2(C(=O)OC)C(=O)C(C)OC(=O)[C@@]12C)C(C)(C)C(=O)CC3O (stereo partly specified)",
    "Target Of Assay": "HEK293T",
    "Result": "inactive"
  },
  {
    "Molecule": "COC1CC(=O)C23C(=O)NC(CC(C)C)C2C(C)C(C)=CC3/C=C(\\C)CCC1O (stereo unspecified)",
    "Target Of Assay": "HEK293T",
    "Result": "inactive"
  },
  {
    "Molecule": "CC1(C)CCC(C)(C)c2cc([C@@H](O)C(=O)Nc3ccc(C(=O)O)cc3F)ccc21",
    "Target Of Assay": "HEK293T",
    "Result": "inactive"
  },
  {
    "Molecule": "CC(=O)OC[C@@]12[C@H](O)C[C@@H](C)[C@]3(C[C@@H](c4ccoc4)OC3=O)[C@H]1C[C@H](O)C[C@]21CO1",
    "Target Of Assay": "HEK293T",
    "Result": "inactive"
  },
  {
    "Molecule": "NCCCC[C@H](NC(=O)[C@@H]1Cc2ccccc2CN1C(=O)CCC(=O)c1ccccc1)C(=O)NCC(c1ccccc1)c1ccccc1",
    "Target Of Assay": "HEK293T",
    "Result": "inactive"
  },
  {
    "Molecule": "COc1cc(C(C)=O)ccc1O[C@@H]1O[C@H](CO[C@@H]2O[C@@H](C)[C@H](O)[C@@H](O)[C@H]2O)[C@@H](O)[C@H](O)[C@H]1O",
    "Target Of Assay": "HEK293T",
    "Result": "inactive"
  }
]

Sourced from PubChem BioAssay (NCATS)
